Source listed as paper PMC6713088.

Biological target: hCA II (Homo sapiens, UniProt P00918)
Construct: gene CA2; cytosolic isoform
Experiment: stopped-flow CO2 hydration assay
Type: biochemical
property.name: Ki (nM)

molecule | Ki / nM
CCOC(=O)c1cnc2ccccc2c1Nc1cccc(S(N)(=O)=O)c1 [6a] | 223

I. CCOC(=O)c1cnc2ccc(OC)cc2c1Nc1cccc(S(N)(=O)=O)c1 [6c]
II. CCOC(=O)c1cnc2ccc(Br)cc2c1Nc1cccc(S(N)(=O)=O)c1 [6d]
III. CCOC(=O)c1cnc2ccc(C)cc2c1Nc1cccc(S(N)(=O)=O)c1 [6b]
List these items ordered by Ki, big to small. List the labels, following the order given in the request. II, III, I
(II: 3590 nM, III: 782 nM, I: 175 nM)

* * *

Experiment: stopped-flow CO2 hydration assay
Assay type: biochemical, Homo sapiens
Conditions: read-out: KI (nM) ^* / hCA I
property.name: Ki

structure.notation | property.name | assay.result
CCOC(=O)c1cnc2cc(Cl)c(F)cc2c1Nc1cccc(S(=O)(=O)NC)c1 | Ki | > 10000 nM

Would you kindly look at the next entry?
Given the molecule CCOC(=O)c1cnc2cc(Cl)cc(Cl)c2c1Nc1cccc(S(N)(=O)=O)c1 , what is its reported Ki? > 10000 nM

* * *

Biological target: hCA II (Homo sapiens, UniProt P00918)
Construct: gene CA2; cytosolic isoform
Test: stopped-flow CO2 hydration assay
Type: biochemical
Settings: CO2 […], […] Hepes pH […] Na2SO4, […] min preincubation at room temperature
property.name: Ki (nM)
# unit: nM | format: bare number

Which value of Ki has been reported for CCOC(=O)c1cnc2cc(Cl)c(F)cc2c1Nc1cccc(S(N)(=O)=O)c1 in the records? 83.3

* * *

Molecular target: hCA I (Homo sapiens)
Construct: gene CA1; cytosolic isoform
Sequence (P00915 2-261): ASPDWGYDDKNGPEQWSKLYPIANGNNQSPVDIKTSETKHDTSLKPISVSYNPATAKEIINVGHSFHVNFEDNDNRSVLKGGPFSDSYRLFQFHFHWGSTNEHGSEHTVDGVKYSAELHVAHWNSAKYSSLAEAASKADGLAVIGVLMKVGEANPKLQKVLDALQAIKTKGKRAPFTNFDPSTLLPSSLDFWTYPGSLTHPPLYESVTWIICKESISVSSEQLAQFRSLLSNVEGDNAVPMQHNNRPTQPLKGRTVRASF
Experiment: stopped-flow CO2 hydration assay
Format: biochemical
property.name: Ki (nM)

Known results for compounds:
structure.notation | unit.annotation | Ki
CCOC(=O)c1cnc2ccc(Br)cc2c1Nc1cccc(S(N)(=O)=O)c1 | nM | 9090
CCOC(=O)c1cnc2ccc(C)cc2c1Nc1cccc(S(N)(=O)=O)c1 | nM | 6640
CCOC(=O)c1cnc2ccc(OC)cc2c1Nc1cccc(S(N)(=O)=O)c1 | nM | 966

1. CCOC(=O)c1cnc2ccccc2c1Nc1cccc(S(N)(=O)=O)c1
2. CCOC(=O)c1cnc2cc(Cl)c(F)cc2c1Nc1cccc(S(N)(=O)=O)c1
Sorting by Ki in descending order, would 1 or 2 appear first? Could you answer with the label of the item you picked? 2
(2: 7600 nM, 1: 4230 nM)
